# METHOD NOTES: AUC (0 to infinity) in rat at 1 mg/kg, iv
# Assay type: ADME, organism-based
# Parameters: time infinity, dose 1 mg/kg, route intravenous
# SETTINGS: plasma
PROPERTY LABEL: AUC(0-inf) (µg·h/mL)
Write the answer as a number in µg·h/mL, unit excluded.

Ask: # AUC(0-inf) lookup, item CC1=C(CN2CC(C(=O)O)C2)CCc2cc(OCCCc3ccc(F)cc3)ccc21.Cl
Result: 5.4

Ask: # AUC(0-inf) lookup, item CC1=C(CN2CC(C(=O)O)C2)CCc2cc(OC[C@@H](C)Cc3ccc(Cl)cc3)ccc21.Cl
Result: 9

---

# METHOD NOTES: AUC (0 to infinity) in rat at 1 mg/kg, po
# Assay type: ADME, organism-based
# Set-up: time infinity, dose 1 mg/kg, route oral
# SETTINGS: plasma
Please provide measured AUC(0-inf) for the entries that follow.
Write the answer as a number in ng·h/mL, unit excluded.

Ask: # AUC(0-inf) lookup, item CC1=C(CN2CC(C(=O)O)C2)CCc2cc(OCCCc3ccc(F)cc3)ccc21.Cl
Result: 5700

Ask: # AUC(0-inf) lookup, item CC1=C(CN2CC(C(=O)O)C2)CCc2cc(OC[C@@H](C)Cc3ccc(Cl)cc3)ccc21.Cl
Result: 5500

Ask: # AUC(0-inf) lookup, item CC1=C(CN2CC(C(=O)O)C2)CCc2cc(OCCCCc3ccccc3)ccc21
Result: 3800

---

Please provide measured bioavailability for the entries that follow.
# METHOD NOTES: Oral bioavailability in rat at 1 mg/kg
# Assay type: ADME, organism-based
# SETTINGS: in vivo
Write the answer as a number in %, unit excluded.

Ask: # bioavailability lookup, item CC1=C(CN2CC(C(=O)O)C2)CCc2cc(OC[C@@H](C)Cc3ccc(Cl)cc3)ccc21.Cl
Result: 62

Ask: # bioavailability lookup, item CC1=C(CN2CC(C(=O)O)C2)CCc2cc(OCCCCc3ccccc3)ccc21
Result: 85

Ask: # bioavailability lookup, item CC1=C(CN2CC(C(=O)O)C2)CCc2cc(OCCCc3ccc(F)cc3)ccc21.Cl
Result: 106

---

# METHOD NOTES: Tmax in rat at 1 mg/kg, po
# Assay type: ADME, organism-based
# Design: dose 1 mg/kg, route oral
# SETTINGS: in vivo
Please provide measured Tmax for the entries that follow.
Write the answer as a number in h, unit excluded.

Ask: # Tmax lookup, item CC1=C(CN2CC(C(=O)O)C2)CCc2cc(OC[C@@H](C)Cc3ccc(Cl)cc3)ccc21.Cl
Result: 4.7

Ask: # Tmax lookup, item CC1=C(CN2CC(C(=O)O)C2)CCc2cc(OC[C@@H](C)Cc3ccc(F)cc3)ccc21.Cl
Result: 4.7

Ask: # Tmax lookup, item CC1=C(CN2CC(C(=O)O)C2)CCc2cc(OCCCc3ccc(F)cc3)ccc21.Cl
Result: 4.7

Ask: # Tmax lookup, item CC1=C(CN2CC(C(=O)O)C2)CCc2cc(OCCCCc3ccccc3)ccc21
Result: 4.7

---

Please provide measured half-life for the entries that follow.
# METHOD NOTES: Half life in rat at 1 mg/kg, po
# Format: ADME, organism-based
# Set-up: dose 1 mg/kg, route oral
# SETTINGS: in vivo
Write the answer as a number in h, unit excluded.

Ask: # half-life lookup, item CC1=C(CN2CC(C(=O)O)C2)CCc2cc(OCCCc3ccc(F)cc3)ccc21.Cl
Result: 24

Ask: # half-life lookup, item CC1=C(CN2CC(C(=O)O)C2)CCc2cc(OC[C@@H](C)Cc3ccc(Cl)cc3)ccc21.Cl
Result: 20

Ask: # half-life lookup, item CC1=C(CN2CC(C(=O)O)C2)CCc2cc(OCCCCc3ccccc3)ccc21
Result: 17

Ask: # half-life lookup, item CC1=C(CN2CC(C(=O)O)C2)CCc2cc(OC[C@@H](C)Cc3ccc(F)cc3)ccc21.Cl
Result: 57

// data source = ChEMBL document CHEMBL1932994
